B1: ZNF449 (parent)
chain: EPHKCPECGKRFLRSSDLYRHQRL

# Variants of: B1
# assay.details: protein stability index of a GFP-peptide fusion (GPS, HEK-293T) (PSI 1-6); higher = more stable;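 also: lentivirally expressed fusions sorted by FACS into six bins by GFP to DsRed ratio, PSI derived from sequencing read proportions per bin multiplied by bin number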
# test.settings: c terminus: a fixed tail appended
property.name: protein stability index

residue_string="EYHKCPECGKRFLRSSDLYRHQRL [P2Y]" value_reported=3.21
residue_string="EPHKCPECGKRFLRSSDLCRHQRL [Y19C]" value_reported=4.7
residue_string="EPHKCPECGKRFQRSSDLYRHQRL [L13Q]" value_reported=4.66
residue_string="EPHKCPECGKRFLRSSDGYRHQRL [L18G]" value_reported=3.05
residue_string="EPHKCPECIKRFLRSSDLYRHQRL [G9I]" value_reported=2.65
residue_string="EPHKCPECGKRFLRSSDLYRVQRL [H21V]" value_reported=2.11
residue_string="EPHKCPECGKRFLRSSDLYSHQRL [R20S]" value_reported=4.2
residue_string="EPHKCPECGKRFLRSSDLYYHQRL [R20Y]" value_reported=3.32
residue_string="EPHKCPECGKRFLRSVDLYRHQRL [S16V]" value_reported=3.81
residue_string="EPHKCPECGSRFLRSSDLYRHQRL [K10S]" value_reported=3.21
residue_string="EPHKCPECGKRFLRSIDLYRHQRL [S16I]" value_reported=3.26
residue_string="EPHKCPECGKRFLRSSDLYDHQRL [R20D]" value_reported=4.5
residue_string="EPHKCPECGKRFLRSSDLYRHQRY [L24Y]" value_reported=3.31
residue_string="EPHKCPECGKRFLRSSDLYQHQRL [R20Q]" value_reported=4.29
residue_string="EPHKWPECGKRFLRSSDLYRHQRL [C5W]" value_reported=3.01
residue_string="EPHKCPECMKRFLRSSDLYRHQRL [G9M]" value_reported=2.72
residue_string="EPHKCPECGKRFLRSSDHYRHQRL [L18H]" value_reported=3.5
residue_string="EPHKCPWCGKRFLRSSDLYRHQRL [E7W]" value_reported=4.05
residue_string="EPHKCPECGKRFLRSSDLYRHQRQ [L24Q]" value_reported=4.6
residue_string="EPHKCPEYGKRFLRSSDLYRHQRL [C8Y]" value_reported=3.24
residue_string="EPHKCPECGKTFLRSSDLYRHQRL [R11T]" value_reported=5.01
residue_string="EPHKCPECVKRFLRSSDLYRHQRL [G9V]" value_reported=2.54
residue_string="EPHKCPECGKRFLRSSDLYLHQRL [R20L]" value_reported=3.55
residue_string="EPHKCPECGKRFLRSSDLYTHQRL [R20T]" value_reported=4.01
residue_string="EPHWCPECGKRFLRSSDLYRHQRL [K4W]" value_reported=3.65
residue_string="VPHKCPECGKRFLRSSDLYRHQRL [E1V]" value_reported=2.67
residue_string="EPHKCPECGKRFLRSSDLYEHQRL [R20E]" value_reported=4.63
residue_string="EPHKCPECGKRHLRSSDLYRHQRL [F12H]" value_reported=3.73
residue_string="EPHKCPECGKEFLRSSDLYRHQRL [R11E]" value_reported=4.84
residue_string="EPGKCPECGKRFLRSSDLYRHQRL [H3G]" value_reported=3.02
residue_string="EPHKCHECGKRFLRSSDLYRHQRL [P6H]" value_reported=3.91
residue_string="EPHKCPNCGKRFLRSSDLYRHQRL [E7N]" value_reported=3.81
residue_string="EPHKCPECGKRFLRSSDLYRNQRL [H21N]" value_reported=2.12
